# % Inhibition Skp2 @ 10 µM listing for each entry below
Target: Skp2 (UniProt Q13309 1-424, limits assumed)
Sequence (Q13309 whole entry): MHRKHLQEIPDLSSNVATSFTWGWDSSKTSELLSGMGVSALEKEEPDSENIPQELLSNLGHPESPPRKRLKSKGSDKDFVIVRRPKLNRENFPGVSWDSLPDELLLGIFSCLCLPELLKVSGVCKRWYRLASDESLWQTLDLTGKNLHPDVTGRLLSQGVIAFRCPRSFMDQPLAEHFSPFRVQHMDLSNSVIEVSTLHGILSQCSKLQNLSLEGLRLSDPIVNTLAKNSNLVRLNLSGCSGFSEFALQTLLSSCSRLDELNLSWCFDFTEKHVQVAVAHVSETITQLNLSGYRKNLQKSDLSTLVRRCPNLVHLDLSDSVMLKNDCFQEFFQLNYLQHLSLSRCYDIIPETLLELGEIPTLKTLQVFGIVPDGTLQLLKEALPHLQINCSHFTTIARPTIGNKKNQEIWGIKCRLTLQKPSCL
Test: cell-based or functional assay
Starred links: 1 amine or outer side, 2 acyl side, 3 side chain; linkers in the order of their positions; H or OH if unused. Non-standard residues stand in square brackets, D forms with d. *: point of attachment. Phe(4-NO2) = N[C@@H](Cc1ccc([N+](=O)[O-])cc1)C(=O)O; E(Me) = COC(=O)CC[C@H](N[*:1])C(=O)[*:2]; Phe(3-Cl) = N[C@@H](Cc1cccc(Cl)c1)C(=O)O; Phe(3-F) = N[C@@H](Cc1cccc(F)c1)C(=O)O; Phe(2-F) = N[C@@H](Cc1ccccc1F)C(=O)O; Suc = O=C(CCC(=O)[*:2])[*:1]; Tos = Cc1ccc(S(=O)(=O)*)cc1; Ethoxycarbonyl = CCOC(=O)*
Readout kind: % Inhibition Skp2 @ 10 µM (%)

Binder: Tos-[dD]EG[Phe(3-F)]WE-NH2 (SMILES Cc1ccc(S(=O)(=O)N[C@H](CC(=O)O)C(=O)N[C@@H](CCC(=O)O)C(=O)NCC(=O)N[C@@H](Cc2cccc(F)c2)C(=O)N[C@@H](Cc2c[nH]c3ccccc23)C(=O)N[C@@H](CCC(=O)O)C(N)=O)cc1, also called UBP021) [Ts-dEGF(3F)WE-NH2]
Unit info: %
Obs value: 19
//
Binder: Tos-[dD]EG[Phe(3-Cl)]W[E(Me)]-NH2 (also called UBP033) [Ts-dEGF(3Cl)WE(Me)-NH2]
Unit info: %
Obs value: 0
//
Binder: Ethoxycarbonyl-[dD]EG[Phe(3-F)]WE-NH2 (SMILES CCOC(=O)N[C@H](CC(=O)O)C(=O)N[C@@H](CCC(=O)O)C(=O)NCC(=O)N[C@@H](Cc1cccc(F)c1)C(=O)N[C@@H](Cc1c[nH]c2ccccc12)C(=O)N[C@@H](CCC(=O)O)C(N)=O, also called UBP023) [EtO(CO)-dEGF(3F)WE-NH2]
Unit info: %
Obs value: 4
//
Binder: Tos-[dD]EG[Phe(3-Cl)]WE-NH2 (SMILES Cc1ccc(S(=O)(=O)N[C@H](CC(=O)O)C(=O)N[C@@H](CCC(=O)O)C(=O)NCC(=O)N[C@@H](Cc2cccc(Cl)c2)C(=O)N[C@@H](Cc2c[nH]c3ccccc23)C(=O)N[C@@H](CCC(=O)O)C(N)=O)cc1, also called UBP034) [Ts-dEGF(3Cl)WE-NH2]
Unit info: %
Obs value: 0
//
Binder: Ac-[dD]EG[Phe(3-F)]WE-NH2 (also called UBP017) [Ac-dEGF(3F)WE-NH2]
Unit info: %
Obs value: 10
//
Binder: Suc-EGY[Phe(4-NO2)]E-NH2 (SMILES NC(=O)[C@H](CCC(=O)O)NC(=O)[C@H](Cc1ccc([N+](=O)[O-])cc1)NC(=O)[C@H](Cc1ccc(O)cc1)NC(=O)CNC(=O)[C@H](CCC(=O)O)NC(=O)CCC(=O)O) [Suc-EGYF(4NO2)E-NH2]
Unit info: %
Obs value: 11
//
Binder: Suc-EG[Phe(2-F)][Phe(4-NO2)]E-NH2 (SMILES NC(=O)[C@H](CCC(=O)O)NC(=O)[C@H](Cc1ccc([N+](=O)[O-])cc1)NC(=O)[C@H](Cc1ccccc1F)NC(=O)CNC(=O)[C@H](CCC(=O)O)NC(=O)CCC(=O)O) [Suc-EGF(2F)F(4NO2)E-NH2]
Unit info: %
Obs value: 8

These entries and their values trace back to patent US20190106460A1.
